// data source = the RNAGym collection of RNA variant scans (doi:10.1073/pnas.2313332121)

B1: TPR t1 (parent)
chain: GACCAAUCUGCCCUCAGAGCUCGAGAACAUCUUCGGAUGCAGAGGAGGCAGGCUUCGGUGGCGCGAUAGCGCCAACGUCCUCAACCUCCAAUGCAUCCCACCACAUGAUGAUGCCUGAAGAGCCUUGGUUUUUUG

variants of: B1; assay: polymerase ribozyme fitness, log enrichment relative to wild type (log ratio); higher = more active; in vitro selection for triplet polymerase activity
// reported polymerase ribozyme fitness (log ratio) for each item listed
Please reply with the number alone, leaving off any unit.

Take a look at these entries with their results.
INSERT INTO results (alteration, meas_value) VALUES
  ('U33G U130A', -5.01),
  ('A26U C53U A74G G77U U125A', -4.77),
  ('A5G G52C C70G C82U', -3.85),
  ('A2G C12U C101U A105U C115A', -1.02),
  ('C4U C70U C80A', -5.32);

Req: Please give the measured polymerase ribozyme fitness (log ratio) for this variant: C56A G128U
Resp: -2.53

Req: Please give the measured polymerase ribozyme fitness (log ratio) for this variant: C15A G71U C104A
Resp: -4.07

Req: Please give the measured polymerase ribozyme fitness (log ratio) for this variant: C86A U116G
Resp: -2.89

Req: Please give the measured polymerase ribozyme fitness (log ratio) for this variant: C12U A37U A119U
Resp: -0.00616

Req: Please give the measured polymerase ribozyme fitness (log ratio) for this variant: U9C A90G C115U U131C
Resp: 1.24

Req: Please give the measured polymerase ribozyme fitness (log ratio) for this variant: C20G G71A A83C
Resp: -5.59

Req: Please give the measured polymerase ribozyme fitness (log ratio) for this variant: C15U G58C G120C
Resp: 0.694

Req: Please give the measured polymerase ribozyme fitness (log ratio) for this variant: C49A C85A
Resp: -1.43

Req: Please give the measured polymerase ribozyme fitness (log ratio) for this variant: A46C G93U U106A
Resp: -1.93

Req: Please give the measured polymerase ribozyme fitness (log ratio) for this variant: C8G A16U A90U
Resp: -0.236

Req: Please give the measured polymerase ribozyme fitness (log ratio) for this variant: A27C A95U C114U
Resp: -4.15

Req: Please give the measured polymerase ribozyme fitness (log ratio) for this variant: U7C A43U G52A C53U C85A U87A
Resp: -4.57

Req: Please give the measured polymerase ribozyme fitness (log ratio) for this variant: A5C A18C C123A U130A
Resp: -1.87

Req: Please give the measured polymerase ribozyme fitness (log ratio) for this variant: G77C U96A
Resp: -1.58

Req: Please give the measured polymerase ribozyme fitness (log ratio) for this variant: C13G C62U U81A C94U C101U
Resp: -3.12

Req: Please give the measured polymerase ribozyme fitness (log ratio) for this variant: `C94A`
Resp: -0.804

Req: Please give the measured polymerase ribozyme fitness (log ratio) for this variant: G47A G58U G110U G120A
Resp: -3.22
